# Target: plasma kallikrein (Homo sapiens, UniProt P03952)
# Construct: from tissue
# Sequence (P03952 391-638 limits assumed): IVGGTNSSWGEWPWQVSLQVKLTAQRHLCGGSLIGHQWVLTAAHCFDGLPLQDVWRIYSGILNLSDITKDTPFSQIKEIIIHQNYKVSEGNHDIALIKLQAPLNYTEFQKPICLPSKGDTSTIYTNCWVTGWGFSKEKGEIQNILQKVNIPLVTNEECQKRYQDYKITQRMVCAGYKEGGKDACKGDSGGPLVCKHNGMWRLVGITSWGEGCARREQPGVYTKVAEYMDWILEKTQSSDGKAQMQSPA
# Sequence (P03952 20-390 partner limits assumed): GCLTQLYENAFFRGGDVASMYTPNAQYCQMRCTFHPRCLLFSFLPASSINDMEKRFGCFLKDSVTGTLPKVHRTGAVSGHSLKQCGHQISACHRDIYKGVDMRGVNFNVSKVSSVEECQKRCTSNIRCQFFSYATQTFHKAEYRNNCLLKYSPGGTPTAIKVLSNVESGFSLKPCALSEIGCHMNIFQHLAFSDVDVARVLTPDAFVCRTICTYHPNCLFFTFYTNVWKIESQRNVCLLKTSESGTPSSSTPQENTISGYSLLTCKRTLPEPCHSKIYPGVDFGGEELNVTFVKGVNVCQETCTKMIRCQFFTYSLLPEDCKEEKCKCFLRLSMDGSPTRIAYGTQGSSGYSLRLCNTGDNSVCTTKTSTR
# Test Description: Neat human plasma assay, FXIIa contact pathway-activated, PFR-AMC substrate
# Type: biochemical
# Run Conditions: citrated human plasma 78% final, 10 nM human FXIIa, 100 μM PFR-AMC; read-out: Human Plasma Assay: IC90
Readout: IC90

Molecule: Cc1ccnc([C@H]2C[C@@H]2C(=O)Nc2cc(NCc3cn4cc(C5CC5)cc(N5CC(=O)N(C6COC6)C5=O)c4n3)ncn2)n1 [Example 378]
Readout: IC90
Result: < 400 nM
//
Molecule: N#Cc1ccc(Cl)cc1[C@H]1C[C@@H]1C(=O)Nc1cc(NCc2cn3cc(C4CC4)ccc3n2)ccn1 (racemic) [Example 82]
Readout: IC90
Result: 10000 to 48000 nM
//
Molecule: CN1C(=O)CN(Cc2cc(C3CC3)cn3cc(CNc4cc(NC(=O)[C@H]5C[C@@H]5c5cccc(Cl)c5)ncn4)nc23)C1=O [Example 400]
Readout: IC90
Result: 1500 to 10000 nM
//
Molecule: Cc1ccnc([C@H]2C[C@@H]2C(=O)Nc2cc(N(C)Cc3cn4cc(C5CC5)cc(S(C)(=O)=O)c4n3)nc(C)n2)n1 [Example I-161]
Readout: IC90
Result: 1500 to 10000 nM
//
Molecule: Cc1ccnc([C@H]2C[C@@H]2C(=O)Nc2cc(NCc3cn4cc(C5CC5)cc(N5CC(=O)N(CC(=O)O)C5=O)c4n3)ncn2)n1 [Example 465]
Readout: IC90
Result: 400 to 1500 nM

Using known records, supply IC90 for COc1nc(NC(=O)[C@H]2C[C@@H]2c2nccc(C)n2)cc(N[C@H](C)c2cn3cc(C4CC4)cc(N4CC(=O)N(C)C4=O)c3n2)n1 [Example 407]
400 to 1500 nM

Using known records, supply IC90 for CN1C(=O)CN(c2cc(C3CC3)cn3cc(CNc4cc(NC(=O)[C@H]5C[C@@H]5c5cccc(Cl)c5)ncn4)nc23)C1=O [Example I-169]
400 to 1500 nM

Using known records, supply IC90 for CN1CCN(c2cc(C3CC3)cn3cc(CNc4cc(NC(=O)[C@H]5C[C@@H]5c5cccc(Cl)c5)nc(O)n4)nc23)CC1 [Example 285]
< 400 nM

Using known records, supply IC90 for Cc1ccnc([C@H]2C[C@@H]2C(=O)Nc2ncc(F)c(NCc3cn4cc(C5CC5)cc(N5CC(=O)N(C)C5=O)c4n3)n2)n1 (racemic) [Example 517]
< 400 nM
